Value source: ChEMBL document CHEMBL1212884

experiment: Chemical stability of the compound in phosphate buffer saline at pH 7.4 assessed as half life; assay type: physicochemical; details: buffer
I'd appreciate it if you marked entries fulfilled when t1/2 is lower than 30 h and not fulfilled when it is not.

Consider CCOC(=O)[C@H](NP(=O)(OC[C@H]1OC(C)(C)O[C@H]1C(=O)NO)Oc1cccc(C)c1C)C(C)C (stereo not given in full) . Does its t1/2 lie strictly below 30 h?
not fulfilled

Same question, CCOC(=O)[C@H](NP(=O)(OC[C@H]1OC(C)(C)O[C@H]1C(=O)NO)Oc1ccc(C)cc1)C(C)C (stereo not given in full) this time
fulfilled

What do you have for CCOC(=O)[C@H](NP(=O)(OC[C@H]1OC(C)(C)O[C@H]1C(=O)NO)Oc1ccccc1)C(C)C (stereo not given in full) ?
not fulfilled

Now the same for CCOC(=O)[C@@H](C)NP(=O)(OC[C@H]1OC(C)(C)O[C@H]1C(=O)NO)Oc1ccccc1 (stereo not given in full)
fulfilled

And the next one, COC(=O)[C@H](NP(=O)(OC[C@H]1OC(C)(C)O[C@H]1C(=O)NO)Oc1ccccc1)C(C)C (stereo not given in full) ?
fulfilled

Another compound: CC(C)[C@@H](NP(=O)(OC[C@H]1OC(C)(C)O[C@H]1C(=O)NO)Oc1ccccc1)C(=O)OC(C)(C)C (stereo not given in full)
not fulfilled

For COC(=O)[C@H](NP(=O)(OC[C@H]1OC(C)(C)O[C@H]1C(=O)NO)Oc1ccc(C)cc1)C(C)C (stereo not given in full) then?
not fulfilled

Next compound: CCOC(=O)[C@@H](C)NP(=O)(OC[C@H]1OC(C)(C)O[C@H]1C(=O)NO)Oc1ccc(C)cc1 (stereo not given in full)
not fulfilled
